Source listed as ChEMBL document CHEMBL4715829.

Tested on: Pseudomonas aeruginosa
Assay: Antibacterial activity against Pseudomonas aeruginosa 101885 assessed as reduction in bacterial growth incubated for 18 hrs by broth microdilution assay
Format: functional

Compound	MIC / µg/mL
NC[C@H]1O[C@H](O[C@H]2[C@H](O)[C@@H](O[C@H]3O[C@H](CO)[C@@H](O)[C@H](N)[C@H]3O)[C@H](N)C[C@@H]2N)[C@H](N)C[C@@H]1O [TOBRAMYCIN]	1
CO[C@H]1/C=C/O[C@@]2(C)Oc3c(C)c(O)c4c(O)c(c(/C=N/N5CCN(C)CC5)c(O)c4c3C2=O)NC(=O)/C(C)=C\C=C\[C@H](C)[C@H](O)[C@@H](C)[C@@H](O)[C@@H](C)[C@H](OC(C)=O)[C@@H]1C [RIFAMPIN]	32
CO[C@H]1/C=C/O[C@@]2(C)Oc3c(C)c(O)c4c(O)c(c(/C=N/N5CCN(Cc6cn(CCCCCCCCCCCCO[C@@H]7[C@@H](O[C@H]8O[C@H](CO)[C@@H](O)[C@H](N)[C@H]8O)[C@H](N)C[C@H](N)[C@H]7O[C@H]7O[C@H](CN)[C@@H](O)C[C@H]7N)nn6)CC5)c(O)c4c3C2=O)NC(=O)/C(C)=C\C=C\[C@H](C)[C@H](O)[C@@H](C)[C@@H](O)[C@@H](C)[C@H](OC(C)=O)[C@@H]1C.O=C(O)C(F)(F)F.O=C(O)C(F)(F)F.O=C(O)C(F)(F)F.O=C(O)C(F)(F)F.O=C(O)C(F)(F)F	256
CO[C@H]1/C=C/O[C@@]2(C)Oc3c(C)c(O)c4c(O)c(c(/C=N/N5CCN(Cc6cn(CCCCO[C@@H]7[C@@H](O[C@H]8O[C@H](CO)[C@@H](O)[C@H](N)[C@H]8O)[C@H](N)C[C@H](N)[C@H]7O[C@H]7O[C@H](CN)[C@@H](O)C[C@H]7N)nn6)CC5)c(O)c4c3C2=O)NC(=O)/C(C)=C\C=C\[C@H](C)[C@H](O)[C@@H](C)[C@@H](O)[C@@H](C)[C@H](OC(C)=O)[C@@H]1C.O=C(O)C(F)(F)F.O=C(O)C(F)(F)F.O=C(O)C(F)(F)F.O=C(O)C(F)(F)F.O=C(O)C(F)(F)F	256
